Provenance of the data: PubChem BioAssay (NCI)

- Test system: OVCAR-3 ovarian
- EXPERIMENT NOTES: NCI tumour cell line growth inhibition, 48 h
Entries and their TGI values follow.

As a guide, the following entries are already answered.
OCCCCC#Cc1ccccc1C#Cc1cccc(C(F)(F)F)c1; 31.6 µM
CN1CCN(c2c(F)cc(NC3=C(Cl)C(=O)c4ncccc4C3=O)cc2F)CC1; 1.37 µM
NC(N)=NCCCC(NCc1c2ccccc2nc2ccccc12)C(=O)O (stereo not given); > 100 µM
Cc1cc(Cl)nc(N(CCNc2ccnc3cc(Cl)ccc23)Cc2ccco2)n1; 3.32 µM
O=C1c2ccccc2C(=O)c2[nH]cnc21; 66.2 µM
C=CCC(CCC(C)=O)(C(=O)OCC)C(=O)OCC; > 100 µM

Reported TGI of CSc1nncc(-c2cc3c(c(SC)n2)CCCC3)n1 : > 100 µM

Reported TGI of O=c1[nH]c(N/N=C\C(O)C(O)C(O)C(O)CO)nc2ccccc12 (stereo not given) : > 100 µM

Reported TGI of COC(=O)/C=C/c1ccc(OP(=O)(O)O)c(OC)c1 : > 100 µM

Reported TGI of COC(=O)c1cc2c(cc1Cl)Sc1nnc(Nc3ccccc3)n1S2(=O)=O : 3.36 µM

Reported TGI of CCOC(=O)c1c2c(n(-c3ccc(C)cc3)c1C)-c1ccccc1C(=O)C2(C(=O)OCC)C(=O)OCC : 69.2 µM

Reported TGI of CC(=O)OC1COC(N2CCc3cc([N+](=O)[O-])ccc32)C(OC(C)=O)C1OC(C)=O (stereo not given) : > 100 µM

Reported TGI of NNC(=O)C(=O)NN=C(C(Cl)(Cl)CO)C(Cl)(Cl)CO : 68 µM

Reported TGI of CCO/C=C1\SC(=S)N(c2ccc(OCC)cc2)C1=O : > 100 µM

Reported TGI of COc1ccc(/C=C2\CCC/C(=C\c3ccc(OC)c(OC)c3)C2=O)cc1OC : > 32.5 µM

Reported TGI of O=C(Nc1ccc(OC(F)(F)Cl)cc1)c1cnc(N2CC[C@@H](O)C2)c(-c2ccn[nH]2)c1 : 41.4 µM

Reported TGI of O=C1c2cc(O)c(O)cc2O[C@H](c2ccc(O)c(O)c2)[C@H]1O : > 100 µM

Reported TGI of CC(SC(=S)N1CCOCC1)C(=O)Nc1nnc(-c2ccc(Cl)cc2)o1 (stereo not given) : > 100 µM

Reported TGI of O=C(NCCc1ccccc1)C1C(=O)C(=O)N(CCc2ccccc2)C1=O (stereo not given) : > 100 µM

----------
- Tested on: HCT-116 colon
- EXPERIMENT NOTES: NCI tumour cell line growth inhibition, 48 h; in the data active = GI50 below about 0.43 µM; inactive = the rest
Entry note: the call must match one of active, inactive

Previously resolved entries follow.
CCCCCC(=O)O[C@]1(C(C)=O)CCC2C3CCC4=CC(=O)CC[C@]4(C)C3CC[C@@]21C (stereo partly specified); inactive
ClCCOCCn1cnc2c(Cl)nc(Cl)nc21; inactive
COc1ccc(-c2nc3ccc(Cc4ccc5nc(-c6ccc(OC)cc6)[nH]c5c4)cc3[nH]2)cc1; active
Cc1cc(Cl)nc(N(CCNc2ccnc3cc(Cl)ccc23)Cc2ccco2)n1; inactive
COc1ccccc1Oc1nccc(-c2c(-c3ccc(F)cc3)ncn2C2CCNCC2)n1; inactive

Input line: Test call for this compound, please: CNCc1ccc(-c2cc(-c3nc(-c4ccc(S(=O)(=O)C(C)C)cc4)cnc3N)on2)cc1
Output line: inactive
